- run parameters: in water, 293.15 K
reported endpoint: solubility (mole fraction)
No unit in the answer, please; the number alone is enough.

Specify solubility (mole fraction) for C#C[C@]1(O)CC[C@H]2[C@@H]3CCC4=CC(=O)CC[C@@H]4[C@H]3C(=C)C[C@@]21CC and stop. 2.6e-05

###

- run parameters: in ethyl acetate, 293.15 K
reported endpoint: solubility (mole fraction)
No unit in the answer, please; the number alone is enough.

Specify solubility (mole fraction) for C#C[C@]1(O)CC[C@H]2[C@@H]3CCC4=CC(=O)CC[C@@H]4[C@H]3C(=C)C[C@@]21CC and stop. 0.0338

###

- run parameters: in ethyl acetate, 303.15 K
reported endpoint: solubility (mole fraction)

Specify solubility (mole fraction) for C#C[C@]1(O)CC[C@H]2[C@@H]3CCC4=CC(=O)CC[C@@H]4[C@H]3C(=C)C[C@@]21CC and stop. 0.043

###

- run parameters: in water, 323.15 K
reported endpoint: solubility (mole fraction)
No unit in the answer, please; the number alone is enough.

Specify solubility (mole fraction) for C#C[C@]1(O)CC[C@H]2[C@@H]3CCC4=CC(=O)CC[C@@H]4[C@H]3C(=C)C[C@@]21CC and stop. 6.37e-05

###

- run parameters: in n-propanol, 293.15 K
reported endpoint: solubility (mole fraction)

Specify solubility (mole fraction) for C#C[C@]1(O)CC[C@H]2[C@@H]3CCC4=CC(=O)CC[C@@H]4[C@H]3C(=C)C[C@@]21CC and stop. 0.00753

###

- run parameters: in ethyl acetate, 298.15 K
reported endpoint: solubility (mole fraction)
No unit in the answer, please; the number alone is enough.

Specify solubility (mole fraction) for C#C[C@]1(O)CC[C@H]2[C@@H]3CCC4=CC(=O)CC[C@@H]4[C@H]3C(=C)C[C@@]21CC and stop. 0.0383

###

- run parameters: in THF, 288.15 K
reported endpoint: solubility (mole fraction)

Specify solubility (mole fraction) for C#C[C@]1(O)CC[C@H]2[C@@H]3CCC4=CC(=O)CC[C@@H]4[C@H]3C(=C)C[C@@]21CC and stop. 0.125

###

- run parameters: in THF, 273.15 K
reported endpoint: solubility (mole fraction)

Specify solubility (mole fraction) for C#C[C@]1(O)CC[C@H]2[C@@H]3CCC4=CC(=O)CC[C@@H]4[C@H]3C(=C)C[C@@]21CC and stop. 0.0739

###

- run parameters: in n-propanol, 308.15 K
reported endpoint: solubility (mole fraction)
No unit in the answer, please; the number alone is enough.

Specify solubility (mole fraction) for C#C[C@]1(O)CC[C@H]2[C@@H]3CCC4=CC(=O)CC[C@@H]4[C@H]3C(=C)C[C@@]21CC and stop. 0.0112
